All figures here come from patent US20250345446A1.

Measured Kd, listed per entry.
STUDY_SYSTEM: soluble ectodomain of sortilin-6his (Homo sapiens, UniProt Q99523, V650M)
Construct: the soluble ectodomain of sortilin-6his is measured by microscale thermophoresis (MST)
Sequence (Q99523 with tags, fused parts or gaps V650M): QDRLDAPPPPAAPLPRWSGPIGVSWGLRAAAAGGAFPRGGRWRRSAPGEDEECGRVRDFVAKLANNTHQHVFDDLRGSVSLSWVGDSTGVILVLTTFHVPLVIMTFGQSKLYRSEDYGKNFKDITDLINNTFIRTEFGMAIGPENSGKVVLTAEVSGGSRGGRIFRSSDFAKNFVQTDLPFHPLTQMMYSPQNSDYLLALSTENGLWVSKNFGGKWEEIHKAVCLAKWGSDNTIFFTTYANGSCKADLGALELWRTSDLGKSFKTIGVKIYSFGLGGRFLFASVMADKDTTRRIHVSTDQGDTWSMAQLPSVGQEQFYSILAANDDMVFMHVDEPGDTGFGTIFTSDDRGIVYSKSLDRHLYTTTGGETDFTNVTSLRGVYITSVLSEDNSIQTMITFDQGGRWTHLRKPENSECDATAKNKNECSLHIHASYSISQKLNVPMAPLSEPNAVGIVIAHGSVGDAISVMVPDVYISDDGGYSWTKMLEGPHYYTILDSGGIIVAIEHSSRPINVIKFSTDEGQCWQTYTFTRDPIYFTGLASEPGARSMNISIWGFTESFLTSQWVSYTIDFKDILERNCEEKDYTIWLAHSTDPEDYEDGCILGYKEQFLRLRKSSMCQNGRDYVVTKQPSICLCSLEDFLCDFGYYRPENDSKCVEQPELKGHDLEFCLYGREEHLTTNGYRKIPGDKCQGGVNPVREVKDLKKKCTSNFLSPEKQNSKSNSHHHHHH
ASSAY_NAME: MST binding to soluble ectodomain of sortilin-6his
CONDITION_PARAMETERS: Table 4; small molecule bifunctional compounds; MST; read-out: KD score, binding to sortilin (Kd)

ITEM_SMILES | QUANTITY_MEASURED | TEST_VALUE
Cc1cc(-c2ccc(OCC(=O)NCCOCCOCc3cn(CCCCCOc4ncc(-c5nc6c(N[C@@H](C)c7cc(C#N)ccc7F)c(Cl)c(C)nc6cc5F)cn4)nn3)cc2)cc(NC(=O)c2ccc(C(F)(F)F)cc2C(=O)O)n1 | Kd | < 1 nM
C[C@@H]1CN(c2ncc(-c3ccc4c(n3)N(Cc3cccnc3C#N)C(C)(C)C4=O)cn2)CCN1C(=O)COCCCCCCCCNc1cccc(Oc2ccc(C(=O)N[C@@H](CCC(C)(C)C)C(=O)O)cn2)c1 | Kd | > 250 nM
CC(C)(C)CC[C@H](NC(=O)c1ccc(Oc2cccc(C(=O)NCCOCCOCCOCCOCCOCCNc3ncc(-c4ccc5c(n4)N(Cc4cccnc4C#N)C(C)(C)C5=O)cn3)c2)nc1)C(=O)O | Kd | < 1 nM

Lab request: please report Kd under test system soluble ectodomain of sortilin-6his (Homo sapiens, UniProt Q99523, V650M) for C[C@@H]1CN(c2ncc(-c3ccc4c(n3)N(Cc3cccnc3C#N)C(C)(C)C4=O)cn2)CCN1C(=O)CNC(=O)CCCCCCCCCCn1cc(-c2cccc(Oc3ccc(C(=O)N[C@@H](CCC(C)(C)C)C(=O)O)cn3)c2)nn1
1 to 10 nM

Identify the measured Kd of CC(C)(C)CC[C@H](NC(=O)c1ccc(Oc2cccc(C(=O)NCCOCCOCCOCCOCCNc3ccc([N+](=O)[O-])cc3[N+](=O)[O-])c2)nc1)C(=O)O for soluble ectodomain of sortilin-6his (Homo sapiens, UniProt Q99523, V650M).
1 to 10 nM

* * *

STUDY_SYSTEM: streptavidin, bifunctional compound and sortilin-6his (UniProt P22629+Q99523, V650M)
ASSAY_NAME: TR-FRET ternary complex formation streptavidin / bifunctional peptide / sortilin-6his
CONDITION_PARAMETERS: Table 2; […] incubation, HTRF ratio 665/620 nm
Residues, ends and D or L forms follow the SMILES beside them. *: point of attachment. Biotin = O=C1N[C@H]2[C@H](CS[C@H]2CCCCC(=O)*)N1
QUANTITY_MEASURED: AUC score, TR-FRET measurements of ternary complex formation

Worked examples, 4 molecules total:
MOLECULE | TEST_VALUE
CC(C)C[C@H](NC(=O)[C@H](CC(C)C)NC(=O)[C@H](CCC(N)=O)NC(=O)[C@H](CCCNC(=N)N)NC(=O)[C@H](CO)NC(=O)CNC(=O)CNC(=O)CNC(=O)CNC(=O)[C@H](CO)NC(=O)CNC(=O)CNC(=O)CNC(=O)CNC(=O)[C@H](CO)NC(=O)CNC(=O)CNC(=O)CCCC[C@@H]1SC[C@@H]2NC(=O)N[C@@H]21)C(=O)O [compound 142] (Biotin-GGSGGGGSGGGGSRQLL-OH) | + (AUC < 5000)
CC(C)C[C@H](NC(=O)[C@H](CC(C)C)NC(=O)[C@H](CCC(N)=O)NC(=O)[C@H](Cc1ccccc1)NC(=O)CNC(=O)CNC(=O)[C@H](CO)NC(=O)CNC(=O)CNC(=O)CNC(=O)CNC(=O)[C@H](CO)NC(=O)CNC(=O)CNC(=O)CNC(=O)CNC(=O)[C@H](CO)NC(=O)CNC(=O)CNC(=O)CCCC[C@@H]1SC[C@@H]2NC(=O)N[C@@H]21)C(=O)O [SEQ ID NO.: 155] (Biotin-GGSGGGGSGGGGSGGFQLL-OH) | ++ (AUC > 5000)
CC(C)C[C@H](NC(=O)[C@H](CC(C)C)NC(=O)[C@H](CCC(N)=O)NC(=O)[C@H](Cc1ccccc1)NC(=O)CNC(=O)[C@H](CO)NC(=O)CNC(=O)CNC(=O)CNC(=O)CNC(=O)[C@H](CO)NC(=O)CNC(=O)CNC(=O)CCCC[C@@H]1SC[C@@H]2NC(=O)N[C@@H]21)C(=O)O [compound 145] (Biotin-GGSGGGGSGFQLL-OH) | + (AUC < 5000)
CC(C)C[C@H](NC(=O)[C@H](CC(C)C)NC(=O)[C@H](CCC(N)=O)NC(=O)[C@H](Cc1ccccc1)NC(=O)CNC(=O)CNC(=O)CNC(=O)[C@H](CO)NC(=O)CNC(=O)CNC(=O)CNC(=O)CNC(=O)[C@H](CO)NC(=O)CNC(=O)CNC(=O)CCCC[C@@H]1SC[C@@H]2NC(=O)N[C@@H]21)C(=O)O [compound 148] (Biotin-GGSGGGGSGGGFQLL-OH) | ++ (AUC > 5000)

For the molecule CC(C)C[C@H](NC(=O)[C@H](CC(C)C)NC(=O)[C@H](CCC(N)=O)NC(=O)[C@H](CCCNC(=N)N)NC(=O)CNC(=O)CNC(=O)[C@H](CO)NC(=O)CNC(=O)CNC(=O)CNC(=O)CNC(=O)[C@H](CO)NC(=O)CNC(=O)CNC(=O)CNC(=O)CNC(=O)[C@H](CO)NC(=O)CNC(=O)CNC(=O)CCCC[C@@H]1SC[C@@H]2NC(=O)N[C@@H]21)C(=O)O [SEQ ID NO.: 147] (Biotin-GGSGGGGSGGGGSGGRQLL-OH) , what AUC score, TR-FRET measurements of ternary complex formation is on record?
++ (AUC > 5000)
